- Experimental System: Transient receptor potential cation channel subfamily V member 3 (Homo sapiens)
- Sequence (Q8NET8 whole entry): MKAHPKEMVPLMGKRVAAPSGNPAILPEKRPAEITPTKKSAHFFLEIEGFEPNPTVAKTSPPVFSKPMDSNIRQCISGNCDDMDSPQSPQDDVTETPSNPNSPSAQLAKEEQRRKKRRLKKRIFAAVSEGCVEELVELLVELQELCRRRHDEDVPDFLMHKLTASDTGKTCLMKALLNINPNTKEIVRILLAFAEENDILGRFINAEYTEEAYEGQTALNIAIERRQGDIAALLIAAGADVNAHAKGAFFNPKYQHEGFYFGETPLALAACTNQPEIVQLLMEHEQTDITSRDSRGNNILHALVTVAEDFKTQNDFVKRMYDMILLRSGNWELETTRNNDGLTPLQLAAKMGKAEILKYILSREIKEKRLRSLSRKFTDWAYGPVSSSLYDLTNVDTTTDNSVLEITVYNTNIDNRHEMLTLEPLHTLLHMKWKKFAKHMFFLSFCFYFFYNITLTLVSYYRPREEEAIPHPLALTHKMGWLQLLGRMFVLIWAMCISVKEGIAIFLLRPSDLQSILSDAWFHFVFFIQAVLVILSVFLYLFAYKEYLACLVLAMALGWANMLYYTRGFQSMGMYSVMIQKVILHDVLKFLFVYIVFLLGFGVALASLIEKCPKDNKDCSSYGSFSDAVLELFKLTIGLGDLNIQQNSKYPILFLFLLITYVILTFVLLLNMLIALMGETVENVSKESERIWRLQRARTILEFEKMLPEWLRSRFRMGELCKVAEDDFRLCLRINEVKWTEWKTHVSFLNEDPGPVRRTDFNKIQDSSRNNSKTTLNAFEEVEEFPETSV
- Experiment Summary: Agonist activity at ionomycin-stimulated TRPV3 (unknown origin) activation

[
  {
    "Compound": "CCCCCc1cc(O)c2c(c1)OC(C)(C)c1ccc(C)cc1-2",
    "EC50": "5300 nM"
  },
  {
    "Compound": "CCCc1cc(O)c2c(c1)OC(C)(C)[C@@H]1CCC(C)=C[C@@H]21 [TETRAHYDROCANNABIVARIN]",
    "EC50": "3800 nM"
  },
  {
    "Compound": "CCCc1cc(O)c2c(c1)OC(C)(C)c1ccc(C)cc1-2",
    "EC50": "3500 nM"
  },
  {
    "Compound": "C=C(C)[C@@H]1CCC(C)=C[C@H]1c1c(O)cc(CCC)cc1O",
    "EC50": "1700 nM"
  },
  {
    "Compound": "CCCCCc1cc(O)c2c(c1)OC(C)(CCC=C(C)C)C=C2 (stereo unspecified)",
    "EC50": "1900 nM"
  },
  {
    "Compound": "CCCCCc1cc(O)c(C/C=C(\\C)CCC=C(C)C)c(O)c1",
    "EC50": "1000 nM"
  }
]

All values here come from ChEMBL document CHEMBL5096151.
